test: Plasma pharmacokinetics of BMS-986142, MAD
Assay type: in vivo, human
measurement.parameters: human, plasma, oral; MAD day 14, 350 mg QD, n = 6; read-out: Tmax median (min, max)
assay.metric: Tmax (h)
// return numeric value only (unit: h, not printed)

Exercise: Look up Tmax for this molecule: Cc1c(-c2c(F)cc(C(N)=O)c3[nH]c4c(c23)CC[C@H](C(C)(C)O)C4)cccc1-n1c(=O)c2cccc(F)c2n(C)c1=O [BMS-986142]
Key: 1.5

---

test: Plasma pharmacokinetics of BMS-986142, MAD
Format: in vivo, human
measurement.parameters: human, plasma, oral; MAD day 14, 200 mg QD, n = 6; read-out: Tmax median (min, max)
Experimental: Eligible participants were confined to the clinical facility (WCCT Global, LLC, Cypress, CA) the day before dosing (day −1) and randomized to receive SAD or MAD treatment under fasting conditions for 10 h. […] Plasma samples were analyzed for BMS-986142 levels with a validated method using liquid chromatography tandem mass spectrometry (LC-MS/MS) detection. […] The lower limit of quantification (LLOQ) was 1.00 ng/mL in plasma. Plasma samples were analyzed for methotrexate levels using LC-MS/MS detection. […]
assay.metric: Tmax

Exercise: Look up Tmax: Cc1c(-c2c(F)cc(C(N)=O)c3[nH]c4c(c23)CC[C@H](C(C)(C)O)C4)cccc1-n1c(=O)c2cccc(F)c2n(C)c1=O [BMS-986142]
Key: 2 h

---

test: Plasma pharmacokinetics of BMS-986142, SAD
Assay type: in vivo
measurement.parameters: human, oral, SAD day 1, 5 mg, n = 5, read-out: AUC(inf) geometric mean (%CV)
assay.metric: AUC(0-inf)
Your reply should be a number followed by the unit it is expressed in.

Exercise: Requested read-out: AUC(0-inf). Entry: Cc1c(-c2c(F)cc(C(N)=O)c3[nH]c4c(c23)CC[C@H](C(C)(C)O)C4)cccc1-n1c(=O)c2cccc(F)c2n(C)c1=O [BMS-986142]
Key: 102 ng·h/mL

---

test: Plasma pharmacokinetics of BMS-986142, MAD
Type: in vivo, human
measurement.parameters: human, plasma, oral; MAD day 14, 350 mg QD, n = 6; read-out: Cmax geometric mean (%CV)
assay.metric: Cmax (ng/mL)
Lab book: enter the figure in ng/mL, no units written.

Exercise: What value of Cmax has been reported for the following compound? Cc1c(-c2c(F)cc(C(N)=O)c3[nH]c4c(c23)CC[C@H](C(C)(C)O)C4)cccc1-n1c(=O)c2cccc(F)c2n(C)c1=O [BMS-986142]
Key: 1020

---

test: Effect of BMS-986142 on single-dose plasma PK of MTX (DDI)
Assay type: in vivo, human
measurement.parameters: male, human, plasma, oral, Treatment F: BMS-986142 350 mg QD + single-dose methotrexate 7.5 mg (day 8) + leucovorin 15 mg (day 9); read-out: Cmax, geometric mean (adjusted)
assay.metric: Cmax (ng/mL)
The figure you give is taken to be in ng/mL; do not add the unit.

Exercise: What does the data say about its Cmax? Entry: CN(Cc1cnc2nc(N)nc(N)c2n1)c1ccc(C(=O)N[C@@H](CCC(=O)O)C(=O)O)cc1 [methotrexate, reference compound]
Key: 186

---

test: Plasma pharmacokinetics of BMS-986142, MAD
Type: in vivo, human
measurement.parameters: human, plasma, oral; MAD day 14, 200 mg QD, n = 6; read-out: T1/2 mean (SD) (converted)
assay.metric: half-life

Exercise: // returns reported half-life for input `Cc1c(-c2c(F)cc(C(N)=O)c3[nH]c4c(c23)CC[C@H](C(C)(C)O)C4)cccc1-n1c(=O)c2cccc(F)c2n(C)c1=O`
Key: 11 h
